The measurements presented in this section are drawn from patent US20210139581A1.

# TARGET OR SYSTEM: T1, human CD33 (human, UniProt P20138 18-259, limits assumed)
# T1 construct: Human CD33 immobilized on the BLI sensor tip or the BIAcore C1 chip; also called Siglec-3
# T1 sequence (P20138 18-259 limits assumed): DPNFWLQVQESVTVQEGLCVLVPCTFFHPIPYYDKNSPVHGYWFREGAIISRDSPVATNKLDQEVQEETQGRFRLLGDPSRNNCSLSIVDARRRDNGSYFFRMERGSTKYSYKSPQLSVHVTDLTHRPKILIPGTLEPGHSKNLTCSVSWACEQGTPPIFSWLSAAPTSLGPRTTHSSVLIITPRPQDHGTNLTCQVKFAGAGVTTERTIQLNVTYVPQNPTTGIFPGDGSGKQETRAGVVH
# PROCEDURE SUMMARY: SPR (BIAcore), Fab over CD33 on C1 chip
ASSAY METRIC: Kd (nM)
Express your answer in nM, writing the number without its unit.

1) AB-64.5 (antibody, V domains shown) VH: QVQLVQSGAEVKKPGASVKISCKASGYTFTDYNYHWVRQAPGQGLEWIGFIYPSNGITGYAQKFFGRATLTVDNSTSTAYMELSSLRSEDTAVYYCARSDVDYFDYWGQGTLLTVSS VL: DIVLTQSPDSLAVSLGERATINCRASQSVGTSTYSYMHWYQQKPGQPPKLLIKYASNLESGVPDRFSGSGSGTDFTLTISSLQAEDVAVYYCQHSWEIPLTFGQGTKLEIK
0.0101

Here is another binder to look at.
Given the binder Chimeric Ab (antibody, V domains shown, Chimeric antibody with the variable regions of murine 2F5.1; also called parental antibody; comparator antibody) VH: EVQLQQSGPELVKPGASVKISCKASGYTFTDYNLHWVKLSHGKSLEWIGFIYPSNGITGYNQKFKNKATLTVDNSSSTAYMELRSLTSEDSAVYYCARSTVDYFDYWGQGTTLTVSS VL: DIVLTQSPASLAVSLGQRATMSCRASQSVSTSTYSYMHWYQQKPGQPPKLLIKYASNLESGVPARFSGSGSGTDFTLNIHPVEEEDTATYYCQHSWEIPLTFGAGTKLELK , what is its reported Kd?
1.63
